# Test system: HAL-01
# assay_summary: selective drug sensitivity score (sDSS, relative to normal bone marrow) (sDSS (score)); higher = more potent and effective on the cell line relative to normal bone marrow cells;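 also: ALL cell lines in 384-well plates, five doses spanning 10,000-fold, each plate scaled between vehicle and 100 µmol/L benzalkonium chloride controls, sDSS an adapted area-under-curve metric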
# settings: 72 h
recorded_metric: selective drug sensitivity score
Answers are plain numbers.

Worked cases, selective drug sensitivity score given:
1. COc1cc(Nc2c(C#N)cnc3cc(OCCCN4CCN(C)CC4)c(OC)cc23)c(Cl)cc1Cl [Bosutinib] (top concentration 10000 nM); -0.54
2. CC1(C)CCC(c2ccc(Cl)cc2)=C(CN2CCN(c3ccc(C(=O)NS(=O)(=O)c4ccc(N[C@H](CCN5CCOCC5)CSc5ccccc5)c(S(=O)(=O)C(F)(F)F)c4)cc3)CC2)C1 [Navitoclax] (top concentration 10000 nM); 14.8
3. CCc1c(C(=O)C(N)=O)c2c(OCC(=O)O)cccc2n1Cc1ccccc1 [Varespladib] (top concentration 10000 nM); -0.84
4. CNC(=O)[C@@H](NC(=O)[C@H](CC(C)C)[C@H](O)C(=O)NO)C(C)(C)C [Marimastat] (top concentration 10000 nM); -1.28
5. C[C@@H]1COCCN1c1cc(C2([S@](C)(=N)=O)CC2)nc(-c2cc[nH]c3nccc2-3)n1 [AZD6738] (top concentration 25000 nM); 9.58

--- query ---
For the compound shown here, Nc1ccccc1NC(=O)c1ccc(CNc2nccc(-c3cccnc3)n2)cc1 [Mocetinostat] (top concentration 10000 nM) , give the reported selective drug sensitivity score.
2.14

---

# Test system: 697
# assay_summary: selective drug sensitivity score (sDSS, relative to normal bone marrow) (sDSS (score)); higher = more potent and effective on the cell line relative to normal bone marrow cells
# settings: 72 h
Provide the reported selective drug sensitivity score of each item.

Worked cases, selective drug sensitivity score given:
1) Cn1ncc(Cl)c1-c1cc(C(=O)N[C@H](CN)Cc2ccc(F)c(F)c2)oc1Cl [Uprosertib] (top concentration 10000 nM); 0.3
2) CNC(=O)c1cccc(-c2ccc3c(N4CCOC[C@@H]4C)nc(N4CCOC[C@@H]4C)nc3n2)c1 [Vistusertib] (top concentration 10000 nM); 15.1
3) CN(C)C1CCN(C(=O)c2ccc(NC(=O)Nc3ccc(-c4nc(N5CCOCC5)nc(N5CCOCC5)n4)cc3)cc2)CC1 [Gedatolisib] (top concentration 1000 nM); 11.3
4) O=C(Nc1c[nH]nc1-c1nc2ccc(CN3CCOCC3)cc2[nH]1)NC1CC1 [AT9283] (top concentration 1000 nM); 12.1
5) O=C(O)c1ccc(CN2CCC(CN[C@@H]3C[C@H]3c3ccccc3)CC2)cc1 (top concentration 100000 nM); -0.42

Would you mind giving selective drug sensitivity score for every compound in the list below?
1. CC[C@@H]1CN(C(=O)NCC(F)(F)F)C[C@@H]1c1cnc2cnc3[nH]ccc3n12 [Upadacitinib] (top concentration 10000 nM)
2. C[C@H]1C=C2C(=O)O[C@H]3CC[C@@H](C1)[C@@]23O [Galiellalactone] (top concentration 25000 nM)
3. CN(C)C(=O)c1ccc(S(=O)(=O)c2ccc(NC(=O)[C@@](C)(O)C(F)(F)F)c(Cl)c2)cc1 [AZD7545] (top concentration 10000 nM)
4. C[C@H]1O[C@@H](O[C@H]2[C@@H](O)C[C@H](O[C@H]3[C@@H](O)C[C@H](O[C@H]4CC[C@@]5(C)[C@H](CC[C@@H]6[C@@H]5C[C@@H](O)[C@]5(C)[C@@H](C7=CC(=O)OC7)CC[C@]65O)C4)O[C@@H]3C)O[C@@H]2C)C[C@H](O)[C@@H]1O [Digoxin] (top concentration 1000 nM)
5. O=C(/C=C\n1cnc(-c2cc(C(F)(F)F)cc(C(F)(F)F)c2)n1)NNc1cnccn1 [Selinexor] (top concentration 10000 nM)

[-6.06, 3.26, 4.3, 8.6, 12.4]

Would you mind giving selective drug sensitivity score for every compound in the list below?
1. CC(=O)c1cc2c(o1)C(=O)c1ccccc1C2=O [Napabucasin] (top concentration 20000 nM)
2. O=C(Nc1cccc(NC(=O)c2cccc(O)c2O)c1)c1cccc(O)c1O [MST-312] (top concentration 10000 nM)

1: -0.88; 2: -1.2
